- subject_of_test: pWT PDZ2 K392M (human) (UniProt Q12959)
- Sequence (Q12959 311-407, change not shown): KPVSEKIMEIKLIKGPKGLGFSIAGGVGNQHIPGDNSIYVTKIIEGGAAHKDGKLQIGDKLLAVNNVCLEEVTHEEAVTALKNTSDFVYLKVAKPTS
- assay_name: stopped-flow spectroscopy
Ends that are not written are not given here.
metric_name: kon (M⁻¹ s⁻¹)
Output spec: scalar in M⁻¹ s⁻¹, unitless text.

Lab note: measured kon of Ac-KRKETLV [KRKETLV peptide (C-terminus of neuroepithelial cell-transforming gene 1 protein, Net1)] was 7.2e+06

Sure, the documented kon for Ac-EKKHTLL [EKKHTLL peptide (C-terminus of E9PN86_HUMAN, partial transcript of EIF3M_HUMAN)] is 1.1e+07

// recorded kon for Ac-TSRETDL [TSRETDL peptide (C-terminus of potassium voltage-gated channel subfamily A member 5, Kv1.5)] : 1.5e+07

get_value(item= Ac-YRRESAI [YRRESAI peptide (C-terminus of inward rectifier potassium channel 4, Kir2.3)] , readout=kon) returns 2.5e+07

kon measured on Ac-VSKETPL [VSKETPL peptide (C-terminus of mitogen-activated protein kinase 12, p38γ)] = 2.4e+07

kon for Ac-PGKETQL [PGKETQL peptide (C-terminus of SO1C1_HUMAN)] is 1.8e+07

Record summary for SARSTDV [SARSTDV peptide (C-terminus of anoctamin-9)] : reported kon = 1.2e+07

get_value(item= Ac-NSKETVV [NSKETVV peptide (C-terminus of E3 ubiquitin-protein ligase MARCH3)] , readout=kon) returns 9.7e+06

Consider Ac-RSISTDV [RSISTDV peptide (C-terminus of protein FAM163B)] . Its measured kon is 1.7e+07

// data source = paper PMC5046105
